All values here come from paper PMC12135066.

# Procedure text: in vivo
# Experimental conditions: female, CD1/nude, mouse, 5 MBq (0.5 nmol), total radioactivity, Bone

Compound | tissue uptake at 4 h [%ID/g]
CC(C)C[C@H](NC(=O)[C@H](Cc1ccc(O)cc1)NC(=O)[C@@H](CCCNC(=N)N)NC(=O)[C@@H](CO)NC(=O)[C@H](Cc1ccccc1)NC(=O)[C@H](CC1CCCCC1)NC(=O)[C@H](CC(=O)O)NC(=O)[C@H](CCCCNC(=O)CCOCCOCCOCCOCCNC(=O)CCCc1ccc(I)cc1)NC(=O)CN1CCN(CC(=O)O)CCN(CC(=O)O)CCN(CC(=O)O)CC1)C(=O)N[C@@H](Cc1c[nH]c2ccccc12)C(=O)N[C@@H](CO)C(N)=O [[^177Lu]Lu-uPAR-02, metal not drawn] | 1.8
CC(C)C[C@H](NC(=O)[C@H](Cc1ccc(O)cc1)NC(=O)[C@@H](CCCNC(=N)N)NC(=O)[C@@H](CO)NC(=O)[C@H](Cc1ccccc1)NC(=O)[C@H](CC1CCCCC1)NC(=O)[C@H](CC(=O)O)NC(=O)[C@H](CCCCNC(=O)CCOCCOCCOCCOCCNC(=O)c1ccc(CNC(=O)CCCc2ccc(I)cc2)cc1)NC(=O)CN1CCN(CC(=O)O)CCN(CC(=O)O)CCN(CC(=O)O)CC1)C(=O)N[C@@H](Cc1c[nH]c2ccccc12)C(=O)N[C@@H](CO)C(N)=O [[^177Lu]Lu-uPAR-03, metal not drawn] | 1.5
